# credit: patent US11998539B2

Molecular target: DGKα (Homo sapiens (Human))
Test: Human DGKα kinase activity inhibition assay (ADP-Glo)
Settings: recombinant full-length human DGKα, 55 μM ATP, 7 μM 1,2-dioleoyl-sn-glycerol, read-out: IC50 values of examples in in vitro human DGKa kinase activity inhibition assays
Assign labels as follows, please: true for IC50 below 10 nM; false for IC50 equal to or exceeding 10 nM.

These solved cases illustrate the format of a correct answer.
SMILES ENTRY	GROUP LABEL
COc1ccc(C2CCN(c3c(C#N)c(=O)n(C)c4ccc(C#N)cc34)CC2)cc1	false
Cn1c(=O)c(C#N)c(N2CCC(c3cccc4occc34)CC2)c2ccccc21	false
Cc1ccc2oc(C3CCN(c4c(C(N)=O)c(=O)n(C)c5c(Cl)cccc45)CC3)nc2c1	false
CCC1(c2nc3ccccc3o2)CCN(c2c(C#N)c(=O)n(C)c3ccccc23)CC1	true
COC1(c2cc3ccccc3s2)CCN(c2c(C#N)c(=O)n(C)c3ccccc23)CC1	true

Is 10 nM strictly greater than the molecule's reported IC50? molecule: COc1ccc(C2CCN(c3c(C#N)c(=O)n(C)c4cc(Br)ccc34)CC2)cc1
true

Is 10 nM strictly greater than the molecule's reported IC50? molecule: COc1ccc(C2CCN(c3c(C#N)c(=O)n(C)c4c(F)cccc34)CC2)cc1
false

Is 10 nM strictly greater than the molecule's reported IC50? molecule: Cc1ccc2oc(C3(C)CCN(c4c(C#N)c(=O)n(C)c5ccc(CC6COC6)cc45)CC3)nc2c1
false

###

Target: DGKα (Homo sapiens (Human), UniProt P23743)
Sequence (P23743 other isoform, or with tags, fused parts or gaps): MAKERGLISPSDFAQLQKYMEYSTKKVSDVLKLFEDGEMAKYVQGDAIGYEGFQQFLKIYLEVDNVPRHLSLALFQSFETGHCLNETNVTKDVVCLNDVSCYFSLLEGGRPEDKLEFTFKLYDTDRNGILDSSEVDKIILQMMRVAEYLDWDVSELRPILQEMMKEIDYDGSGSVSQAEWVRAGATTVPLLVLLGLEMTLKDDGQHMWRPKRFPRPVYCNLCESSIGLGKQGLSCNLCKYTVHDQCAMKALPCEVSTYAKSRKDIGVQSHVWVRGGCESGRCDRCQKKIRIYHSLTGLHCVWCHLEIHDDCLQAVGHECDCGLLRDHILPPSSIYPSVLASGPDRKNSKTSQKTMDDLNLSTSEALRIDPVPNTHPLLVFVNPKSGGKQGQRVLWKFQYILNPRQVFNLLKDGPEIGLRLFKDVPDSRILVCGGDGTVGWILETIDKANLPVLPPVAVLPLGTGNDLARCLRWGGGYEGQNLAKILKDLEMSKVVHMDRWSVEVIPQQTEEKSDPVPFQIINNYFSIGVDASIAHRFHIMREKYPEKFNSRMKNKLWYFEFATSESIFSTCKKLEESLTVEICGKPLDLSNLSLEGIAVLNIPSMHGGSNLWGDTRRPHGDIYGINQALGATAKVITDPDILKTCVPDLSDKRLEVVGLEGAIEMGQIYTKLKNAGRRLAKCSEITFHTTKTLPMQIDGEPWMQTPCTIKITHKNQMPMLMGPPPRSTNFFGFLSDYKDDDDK
Test: Human DGKα kinase activity inhibition assay (ADP-Glo)
Conditions: recombinant full-length human DGKα, 55 μM ATP, 7 μM 1,2-dioleoyl-sn-glycerol, read-out: IC50 values of examples in in vitro human DGKa kinase activity inhibition assays
REPORTED ENDPOINT: log10 of IC50 (log10 of the value in µM)
Answers are given as log10 of IC50 in µM.

// known answers, use as guide
COMPOUND	log10 of IC50
Cc1ccc2oc(C3CCN(c4c(C#N)c(=O)n(C)c5ccc(OCC(C)(F)F)cc45)CC3)nc2c1	-1.44
COc1ccc(C2CCN(c3c(C(N)=O)c(=O)n(C)c4ccccc34)CC2)cc1	-2.35
Cc1ccc2oc(C3(C)CCN(c4c(C#N)c(=O)n(C)c5ccc(OC6COC6)cc45)CC3)nc2c1	-1.19
Cc1ccc2oc(C3CCN(c4c(C#N)c(=O)n(C)c5cc(O)c(C)cc45)CC3)nc2c1	-3.22
Cn1c(=O)c(C#N)c(N2CCC(c3cccc(Cl)c3)CC2)c2ccccc21	-1.59
Cn1c(=O)c(C#N)c(N2CCC(C)(c3nc4cc(C(C)(C)C)ccc4o3)CC2)c2ccccc21	-1.35

Record COC1(c2cccc(Cl)c2)CCN(c2c(C(N)=O)c(=O)n(C)c3ccccc23)CC1 . Reported log10 of IC50: -0.79

Record Cc1ccccc1-n1ccc(C2CCN(c3c(C#N)c(=O)n(C)c4ccccc34)CC2)n1 . Reported log10 of IC50: -1.68

###

Target: UniProt P23743
Assay: Human DGKα kinase activity inhibition assay (ADP-Glo)
Details: recombinant full-length human DGKα, 55 μM ATP, 7 μM 1,2-dioleoyl-sn-glycerol, read-out: IC50 values of examples in in vitro human DGKa kinase activity inhibition assays
REPORTED ENDPOINT: pIC50
Scale note: pIC50 = -log10(concentration in M).

// known answers, use as guide
COMPOUND	TARGET OR SYSTEM	pIC50
Cn1c(=O)c(C(N)=O)c(N2CCC(F)(c3nc4ccccc4o3)CC2)c2ccccc21	UniProt P23743	8.80
CC(C)Oc1ccc(C2CCN(c3c(C#N)c(=O)n(C)c4ccccc34)CC2)cc1	UniProt P23743	8.82
COCCNc1cc2c(cc1C)c(N1CCC(c3nc4cc(C)ccc4o3)CC1)c(C(N)=O)c(=O)n2C	UniProt P23743	8.80
COCCc1cccc2oc(C3CCN(c4c(C(N)=O)c(=O)n(C)c5ccccc45)CC3)nc12	UniProt P23743	7.34

Record Cc1ccc2oc(C3CCN(c4c(C#N)c(=O)n(C)c5cc(Br)ccc45)CC3)nc2c1 . Reported pIC50: 8.05

Record COCc1ccc2c(N3CCC(C)(c4nc5cc(C)ccc5o4)CC3)c(C#N)c(=O)n(C)c2c1 . Reported pIC50: 9.52

Record Cc1ccc2oc(C3(C)CCN(c4c(C#N)c(=O)n(C)c5c(Br)cccc45)CC3)nc2c1C(F)(F)F . Reported pIC50: 5.90

Record Cc1ccc2oc(C3CCN(c4c(C(N)=O)c(=O)n(C)c5cc(F)ccc45)CC3)nc2c1 . Reported pIC50: 8.68

Record Cc1ccc2c(c1)c(N1CCC(c3nc4cc(Cl)ccc4o3)CC1)c(C#N)c(=O)n2C . Reported pIC50: 8.54

Record Cn1c(=O)c(C#N)c(N2CCC(c3ccccc3)CC2)c2ccccc21 . Reported pIC50: 7.66

###

Target: DGKα (Homo sapiens (Human), UniProt P23743)
Test: Human DGKα kinase activity inhibition assay (ADP-Glo)
Details: recombinant full-length human DGKα, 55 μM ATP, 7 μM 1,2-dioleoyl-sn-glycerol, read-out: IC50 values of examples in in vitro human DGKa kinase activity inhibition assays
Assign labels as follows, please: true (1) for IC50 below 5 nM; false (0) for IC50 equal to or exceeding 5 nM.

Is 5 nM strictly greater than the compound's reported IC50? compound: Cc1ccc2oc(C3CCN(c4c(C#N)c(=O)n(C)c5cc(O)c(Cl)cc45)CC3)nc2c1 [Example 567]
true (1)

Is 5 nM strictly greater than the compound's reported IC50? compound: Cc1cccc(-c2noc(C3CCN(c4c(C#N)c(=O)n(C)c5ccccc45)CC3)n2)c1 [Example 350]
false (0)

###

Biological target: DGKα (Homo sapiens (Human))
Assay: Human DGKα kinase activity inhibition assay (ADP-Glo)
Conditions: recombinant full-length human DGKα, 55 μM ATP, 7 μM 1,2-dioleoyl-sn-glycerol, read-out: IC50 values of examples in in vitro human DGKa kinase activity inhibition assays
The reader will find reported IC50 values listed item by item below.
Returns: string containing the numeric result and its unit.

// known answers, use as guide
MOLECULE	TARGET OR SYSTEM	REPORTED ENDPOINT	MEASURED
Cc1ccc2oc(C3(C)CCN(c4c(C#N)c(=O)n(C)c5c(Cl)cccc45)CC3)nc2c1 [Example 231]	DGKα (Homo sapiens (Human))	IC50	108 nM
Cn1c(=O)c(C(N)=O)c(N2CCC(c3nc(-c4ccccc4)no3)CC2)c2cc(Br)ccc21 [Example 523]	DGKα (Homo sapiens (Human))	IC50	3.7 nM
Cc1ccc2oc(C3CCN(c4c(C(N)=O)c(=O)n(C)c5cc(N(C)CC#N)ccc45)CC3)nc2c1 [Example 500]	DGKα (Homo sapiens (Human))	IC50	0.7 nM
Cc1ccccc1C1CCN(c2c(C#N)c(=O)n(C)c3ccccc23)CC1 [Example 82]	DGKα (Homo sapiens (Human))	IC50	11 nM
Cn1c(=O)c(C#N)c(N2CCC(c3cccc4ncsc34)CC2)c2ccccc21 [Example 75]	DGKα (Homo sapiens (Human))	IC50	49 nM
Cc1ccccc1-c1noc(C2CCN(c3c(C(N)=O)c(=O)n(C)c4ccccc34)CC2)n1 [Example 458]	DGKα (Homo sapiens (Human))	IC50	4.3 nM

Attention now turns to another entry.
Record Cn1c(=O)c(C#N)c(N2CCC(c3nc4cc(Cl)ccc4o3)CC2)c2ccccc21 [Example 11] . Reported IC50: 3.8 nM

###

Target: DGKα (Homo sapiens (Human), UniProt P23743)
Experiment: Human DGKα kinase activity inhibition assay (ADP-Glo)
Settings: recombinant full-length human DGKα, 55 μM ATP, 7 μM 1,2-dioleoyl-sn-glycerol, read-out: IC50 values of examples in in vitro human DGKa kinase activity inhibition assays
Assign labels as follows, please: fulfilled for IC50 below 2 nM; not fulfilled for IC50 equal to or exceeding 2 nM.

These solved cases illustrate the format of a correct answer.
MOLECULE	GROUP LABEL
COCCc1ccc2oc(C3CCN(c4c(C#N)c(=O)n(C)c5ccccc45)CC3)nc2c1 [Example 283]	not fulfilled
Cn1c(=O)c(C(N)=O)c(N2CCC(c3nc4ccccc4o3)CC2)c2cc(F)ccc21 [Example 299]	fulfilled
Cc1ccc2oc(C3CCN(c4c(C(N)=O)c(=O)n(C)c5cc(Cl)ccc45)CC3)nc2c1 [Example 301]	fulfilled
COc1cccc2c(N3CCC(C)(c4nc5cc(C)ccc5o4)CC3)c(C#N)c(=O)n(C)c12 [Example 260]	not fulfilled
Cn1c(=O)c(C#N)c(N2CCC(c3nc4ccccc4o3)CC2)c2cc(Br)ccc21 [Example 168]	fulfilled
Cc1ccc(-c2csc(C3CCN(c4c(C#N)c(=O)n(C)c5ccccc45)CC3)n2)cc1 [Example 374]	not fulfilled
Cn1c(=O)c(C#N)c(N2CCC(C)(c3nc4ccc(OC(F)(F)F)cc4o3)CC2)c2ccccc21 [Example 20]	fulfilled

Is 2 nM strictly greater than the molecule's reported IC50? molecule: Cc1ccc2nc(C3(C)CCN(c4c(C#N)c(=O)n(C)c5ccc(C)cc45)CC3)oc2c1 [Example 188]
not fulfilled
